Answer each item with its documented DC50.
# EXPERIMENTAL TARGET: SMARCA4-HiBiT HeLa cells (protein which is expressed from the SMARCA4 gene) (Homo sapiens, UniProt P51532)
# Construct: protein which is expressed from the SMARCA2 and SMARCA4 genes; host or cells: HeLa (SMARCA4-HiBiT engineered line)
# Sequence (P51532 whole entry): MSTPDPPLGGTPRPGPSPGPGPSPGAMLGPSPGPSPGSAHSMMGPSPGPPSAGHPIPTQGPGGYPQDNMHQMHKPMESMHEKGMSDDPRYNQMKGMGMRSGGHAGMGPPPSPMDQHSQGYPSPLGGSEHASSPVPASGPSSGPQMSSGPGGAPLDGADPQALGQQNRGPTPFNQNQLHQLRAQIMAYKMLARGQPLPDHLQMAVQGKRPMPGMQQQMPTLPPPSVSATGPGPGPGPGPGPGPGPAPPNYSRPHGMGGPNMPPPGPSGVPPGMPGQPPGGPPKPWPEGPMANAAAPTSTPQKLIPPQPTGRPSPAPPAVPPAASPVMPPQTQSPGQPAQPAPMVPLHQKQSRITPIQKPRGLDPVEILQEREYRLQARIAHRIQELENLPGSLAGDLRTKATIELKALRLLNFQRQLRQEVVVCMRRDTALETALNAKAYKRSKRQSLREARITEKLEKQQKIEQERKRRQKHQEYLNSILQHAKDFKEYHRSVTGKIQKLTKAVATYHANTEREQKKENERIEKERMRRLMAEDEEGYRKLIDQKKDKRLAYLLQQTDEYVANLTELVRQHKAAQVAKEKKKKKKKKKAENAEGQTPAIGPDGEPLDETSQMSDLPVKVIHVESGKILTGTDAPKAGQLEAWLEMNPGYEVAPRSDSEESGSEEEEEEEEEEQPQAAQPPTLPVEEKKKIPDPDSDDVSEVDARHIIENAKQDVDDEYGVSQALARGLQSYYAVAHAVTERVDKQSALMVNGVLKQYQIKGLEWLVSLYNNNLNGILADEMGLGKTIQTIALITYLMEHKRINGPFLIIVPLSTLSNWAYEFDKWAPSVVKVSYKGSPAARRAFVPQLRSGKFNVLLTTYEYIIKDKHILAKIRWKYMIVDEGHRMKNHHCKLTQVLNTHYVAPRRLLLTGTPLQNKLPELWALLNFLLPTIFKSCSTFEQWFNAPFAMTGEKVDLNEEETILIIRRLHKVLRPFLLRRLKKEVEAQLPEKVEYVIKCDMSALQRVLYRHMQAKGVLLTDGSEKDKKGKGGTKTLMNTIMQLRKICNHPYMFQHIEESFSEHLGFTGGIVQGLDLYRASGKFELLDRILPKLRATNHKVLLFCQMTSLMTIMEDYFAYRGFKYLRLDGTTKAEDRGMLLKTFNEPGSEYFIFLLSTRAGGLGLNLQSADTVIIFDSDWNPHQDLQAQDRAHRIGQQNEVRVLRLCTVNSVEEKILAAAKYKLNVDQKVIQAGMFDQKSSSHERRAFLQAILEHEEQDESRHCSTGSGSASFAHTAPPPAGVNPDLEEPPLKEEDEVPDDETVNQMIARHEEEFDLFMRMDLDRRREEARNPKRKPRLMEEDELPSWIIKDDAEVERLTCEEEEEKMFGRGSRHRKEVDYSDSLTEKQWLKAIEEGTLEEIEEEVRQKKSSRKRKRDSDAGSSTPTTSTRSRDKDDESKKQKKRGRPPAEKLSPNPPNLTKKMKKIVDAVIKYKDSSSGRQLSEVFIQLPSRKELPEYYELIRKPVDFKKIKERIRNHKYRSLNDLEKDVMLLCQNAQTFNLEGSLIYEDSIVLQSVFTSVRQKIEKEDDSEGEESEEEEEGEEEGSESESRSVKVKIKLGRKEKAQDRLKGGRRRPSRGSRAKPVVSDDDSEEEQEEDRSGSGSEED
# ASSAY PROCEDURE: SMARCA4 degradation assay (HiBiT-fusion HeLa cell line, 24 h, luminescence)
# Format: cell-based
# Excerpt: SMARCA2 and SMARCA4 Degradation Assay Degradation of protein which is expressed from the SMARCA2 and SMARCA4 genes was monitored using engineered HiBiT-fusion HeLa cell lines from Promega. […] 24-hours post-treatment, protein levels were quantified with the addition of HiBiT lytic buffer, LgBiT protein, and HiBiT substrate, according to manufacturer's specifications. […]

Use the examples below as a reference point.
1) C[C@@H]1CCN(c2cc(-c3ccccc3O)nnc2N)CCN1c1nc(C#CCn2ccnc2)ncc1F = 50 to 500 nM
2) C[C@@H]1CCN(c2cc(-c3ccccc3O)nnc2N)CCN1c1ccc(C#N)c(C#CCN(C)C)n1 = < 50 nM
3) CC1CC(C)N1CC#Cc1nccc(N2CCN(c3cc(-c4ccccc4O)nnc3N)CC[C@H]2C)n1 (stereo partly drawn) = < 50 nM
4) C[C@@H]1CCN(c2cc(-c3ccccc3O)nnc2N)CCN1c1ccnc(C#CCN2C3CCC2COC3)n1 = 50 to 500 nM
5) Nc1nnc(-c2ccccc2O)cc1N1C[C@H]2C[C@@H]1CN2c1ccnc(C#CCN2CCCCC2)n1 = < 50 nM

Measured DC50 of Cc1c(C(=O)NCC#Cc2nccc(N3CCN(c4cc(-c5ccccc5O)nnc4N)CC3)n2)oc2ccccc12 : 50 to 500 nM
